Reported Dissociation rate constant kd values are given for each entry in this list.
# assay-notes: Kinetics analysis of interaction between streptavidin protein and biotin using Biacore biosensor
# Assay type: binding
# study-conditions: Biacore 3000, biotinylated mouse antibody captured, 1:1 binding model

Solved entries (count: 2):
molecule	result
mcSA214: mutant core streptavidin with Y22S, Y83A, R84K, E101D, R103K, E116Q (protein) core streptavidin subunit: AEAGITGTWSNQLGSTFIVTAGADGALTGTYESAVGNAESRYVLTGRYDSAPATDGSGTALGWTVAWKNNAKNAHSATTWSGQYVGGADAKINTQWLLTSGTTQANAWKSTLVGHDTFTKVKPSAAS	1.21 × 10^−4 S^−1
mcSA010: mutant core streptavidin with Y83A, R84K, E116N (protein) core streptavidin subunit: AEAGITGTWYNQLGSTFIVTAGADGALTGTYESAVGNAESRYVLTGRYDSAPATDGSGTALGWTVAWKNNAKNAHSATTWSGQYVGGAEARINTQWLLTSGTTNANAWKSTLVGHDTFTKVKPSAAS	8.96 × 10^−5 S^−1

// moving on: another record for Dissociation rate constant kd
Request: Dear colleague, please send me the reported Dissociation rate constant kd for mcSA414: mutant core streptavidin with Y22S, Y83S, R84K, E101D, R103K, E116Q (protein) core streptavidin subunit: AEAGITGTWSNQLGSTFIVTAGADGALTGTYESAVGNAESRYVLTGRYDSAPATDGSGTALGWTVAWKNNSKNAHSATTWSGQYVGGADAKINTQWLLTSGTTQANAWKSTLVGHDTFTKVKPSAAS when you can.
Result: 5.18 × 10^−5 S^−1
